TESTED TARGET: T1, GLP-1R (INS1e assay) (UniProt P32301 22-463, limits assumed)
T1 sequence (looked up): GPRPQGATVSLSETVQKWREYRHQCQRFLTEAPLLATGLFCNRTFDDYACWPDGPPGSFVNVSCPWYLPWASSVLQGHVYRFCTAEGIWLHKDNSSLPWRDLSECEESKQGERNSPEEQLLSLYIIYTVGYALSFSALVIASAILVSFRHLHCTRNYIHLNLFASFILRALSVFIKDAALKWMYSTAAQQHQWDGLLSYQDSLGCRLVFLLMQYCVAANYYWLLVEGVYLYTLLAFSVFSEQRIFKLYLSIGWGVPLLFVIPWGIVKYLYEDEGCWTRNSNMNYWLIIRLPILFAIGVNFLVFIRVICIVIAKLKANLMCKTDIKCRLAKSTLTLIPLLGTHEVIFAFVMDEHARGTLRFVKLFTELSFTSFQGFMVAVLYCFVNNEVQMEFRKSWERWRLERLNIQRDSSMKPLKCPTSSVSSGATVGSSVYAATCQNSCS
TEST DESCRIPTION: cell-based or functional assay
Non-standard residues stand in square brackets, D forms with d. Groups on a side chain read outwards from the residue. Primed or numbered codes have the meaning given here. No end group written: not given here. *: point of attachment. Stearoyl = CCCCCCCCCCCCCCCCCC(=O)*; αMeF = C[C@](N)(Cc1ccccc1)C(=O)O; αMeK = C[C@](N)(CCCCN)C(=O)O; PEG2′ = not defined here; Aib = CC(C)(N)C(=O)O
OBSERVED PROPERTY: INS1e assay EC50 Mean pM GLP-1R (pM)

Inquiry: Find the recorded INS1e assay EC50 Mean pM GLP-1R belonging to HXEGSFTSDVSKFLEGEAAKEFIAFVVKGG (Aib2; α-MeF6; α-MeS11; K12(ε-γE-Palmitoyl); α-MeF13; α-MeK20; α-MeF22; α-MeF25; α-MeK28; C-terminal amide) [SEQ ID NO 88] and report it.
Reply text: 346

1. H[Aib]EGS[αMeF]TSDVSK([PEG2′-PEG2′-PEG2′-Stearoyl])YLEGEAAEE[αMeF]IA[αMeF]VVEGG-NH2 [SEQ ID NO 62]
2. H[Aib]EGS[αMeF]TSDVSK([PEG2′-PEG2′-PEG2′-Stearoyl])YLEGEAA[αMeK]E[αMeF]IA[αMeF]VVEGG-NH2 [SEQ ID NO 64]
Inquiry: 1 or 2 : whose INS1e assay EC50 Mean pM GLP-1R is greater? Pick one; state its label.
Reply text: 1
